Tested on: T-47D breast
run description: NCI tumour cell line growth inhibition, 48 h
Think of 70 µM as a floor: if TGI stands on it or above, it is y; beneath it, n.

Known results for compounds:
(Q) Is TGI at least 70 µM? Consider COc1ccc(NS(=O)c2c(C)cc(C)cc2C)cc1 (centres undefined)
(A) y

(Q) Now the same for COc1ccc(C2CC(c3ccc4ccccc4c3)=NN2c2nc(O)c(C3=c4cc(OC)ccc4=NC3=O)s2)cc1 (centres undefined)
(A) n

Okay, next one:
(Q) Hi team, for O=C1/C(=C\c2ccccc2)CN(C(=O)c2ccccc2)C/C1=C\c1ccccc1 , is the recorded TGI at or above 70 µM?
(A) n

###

Test system: M14 melanoma
run description: NCI tumour cell line growth inhibition, 48 h
Reported TGI values follow for various compounds

Some solved entries appear below for comparison.
(Q) # input compound: CCP(=O)(CC)C(Cl)(Cl)C(O)C(Cl)(Cl)Cl (configuration not stated) ; wanted: its TGI
(A) > 100 µM

(Q) Try this compound too: COc1ccc(NS(=O)c2c(C)cc(C)cc2C)cc1 (configuration not stated)
(A) > 100 µM

(Q) Then this compound: O=c1nc(N2CCCC2)nc(N2CCCC2)s1
(A) > 100 µM

(Q) Also check O=C1CCSc2nc(-c3ccc4c(c3)OCO4)nn21
(A) > 10 µM

---
(Q) Endpoint output: TGI of CN1c2ccccc2C(=O)NC12CCNCC2 . Value?
(A) > 100 µM

(Q) Repeat for the following compound: O=C1NC(=O)C(c2ccccc2)=C1Nc1ccccc1
(A) > 25 µM

(Q) Same lookup for O=C([O-])CCc1ccccc1.O=C([O-])CCc1ccccc1.O=C([O-])CCc1ccccc1.O=C([O-])CCc1ccccc1.[Mo+2].[Mo+2] , please.
(A) > 100 µM

(Q) Subsequent entry: O=C(/C=C/c1ccc(O)c(O)c1)NC(COC(=O)/C=C/c1ccc(O)c(O)c1)C(=O)O (configuration not stated)
(A) > 100 µM

(Q) # iterate: O=C(O)c1ccc(Oc2nc3ccccc3s2)cc1
(A) > 100 µM

(Q) Further, for CCCCN(CCCC)CC(C(=O)Nc1ccc([N+](=O)[O-])cc1[N+](=O)[O-])/C(C)=N\NC(=O)C[N+](C)(C)C (configuration not stated) ?
(A) > 100 µM

(Q) Try the compound O=C(/C=C/c1nnc2n(Cc3ccccc3)c(=O)c3c4c(sc3n12)CCCC4)c1ccccc1
(A) > 100 µM

(Q) Same lookup for CN(C)c1ccc(/C=c2\sc3nnc(-c4cccnc4)n3c2=O)cc1 , please.
(A) > 100 µM

(Q) Entry to check: Cc1cnc2c(c1)C(=O)N(c1ccc([N+](=O)[O-])cc1)S2(=O)=O
(A) > 100 µM

(Q) Cc1cc(=O)oc2cc(OC(=O)Nc3ccccc3)ccc12 ?
(A) > 100 µM

(Q) Let us now turn to COc1ccccc1N1C(=O)CSC1c1cc(OC)c(OC)c(OC)c1 (configuration not stated)
(A) > 100 µM

(Q) Likewise for NCCCn1c2c(c3ccc([N+](=O)[O-])cc3c1=O)C(=O)c1cc(F)ccc1-2 ?
(A) 0.104 µM

(Q) // next record O=C(Oc1c(Br)cc(Br)cc1C(=O)Oc1ccccc1)C(=O)Oc1c(Br)cc(Br)cc1C(=O)Oc1ccccc1
(A) > 100 µM

(Q) Moving on to O=C1C=CC(=O)N1c1ccc(I)cc1
(A) 31.2 µM

(Q) Next up: O=P(CCOc1ccccc1OCCP(=O)(c1ccccc1)c1ccc2c(c1)OCCOCCOCCOCCO2)(c1ccccc1)c1ccc2c(c1)OCCOCCOCCOCCO2 (configuration not stated)
(A) > 100 µM

(Q) // repeat for Cc1[nH]c2nc3c(ncn3COCCO)c(=O)n2c1C(c1ccccc1)(c1ccccc1)c1ccccc1 and report
(A) 33.3 µM

(Q) Also, O=C(O)c1ccc(C(=O)O)c(C(=O)O)c1.[NH-]C1CCCCC1[NH-].[Pt+2] please.
(A) 37.4 µM

(Q) Field entry: C=C(CCC/C(C)=C/C=C/[C@H](C)CCCc1ccoc1)C[C@@H]1OC(=O)[C@H](C)[C@@H]1O
(A) 19.4 µM

(Q) Let us now turn to COc1cc(/C=C/C(=O)c2ccc(F)cc2)ccc1OCCCCCOc1cc2c(cc1OC)C(=O)N1CCCC1C=N2 (configuration not stated)
(A) 0.266 µM

(Q) Another compound to look at: O=c1[nH]c(F)nc2c1ncn2C1OC(CO)C(O)C1O (configuration not stated)
(A) > 100 µM

###

System: MDA-MB-231 breast
run description: NCI tumour cell line growth inhibition, 48 h
experimental endpoint: TGI

These solved cases illustrate the format of a correct answer.
(Q) Param readout= TGI; system= MDA-MB-231 breast; entry= NC(=N\N=C/c1ccc(Cl)cc1Cl)/C(N)=N\N=C/c1ccc(Cl)cc1Cl ; returns value.
(A) > 100 µM

(Q) Also need O=C(/C=C/c1ccc(O)c(O)c1)NC(COC(=O)/C=C/c1ccc(O)c(O)c1)C(=O)O (stereo not drawn) , thanks.
(A) > 100 µM

Others:
(Q) Form: Entry = N#C/C(=C\c1ccc(F)cc1)n1nc2cccc(F)c2n1 | System = MDA-MB-231 breast | TGI = ____
(A) > 100 µM

###

System: SR leukemia
run description: NCI tumour cell line growth inhibition, 48 h
experimental endpoint: TGI

Worked cases, answers included:
(Q) What value of TGI has been recorded for this entry: O=c1nc2c(c(-c3ccc(F)cc3)[nH]1)COC/C2=C\c1ccc(F)cc1
(A) > 100 µM

(Q) Now this one: COc1cc(/C=C/C(=O)c2c(C)nc3ccccc3c2C)ccc1OCCCCOc1cc2c(cc1OC)C(=O)N1CCC[C@H]1C=N2
(A) > 100 µM

More entries:
(Q) Request the reported TGI associated with O=c1c(O)cc2c(O)oc3c(=O)c(O)c(O)c4c(O)oc1c2c43
(A) > 100 µM

###

Known TGI of a selection of compounds
System: OVCAR-5 ovarian
run description: NCI tumour cell line growth inhibition, 48 h

// solved cases for TGI follow
(Q) # get_value(readout='TGI', item= O=C1NC(=O)C2C1C1C=C3c4ccccc4N(c4ccccc4)C32[C@H]2C(=O)NC(=O)[C@@H]12 (stereo partly specified) )
(A) > 100 µM

(Q) Now this one: O=C(/C=C/c1nnc2n(Cc3ccccc3)c(=O)c3c4c(sc3n12)CCCC4)c1ccccc1
(A) > 100 µM

(Q) Lookup O=C(c1cccs1)c1nc2cc(Cl)ccc2[n+]([O-])c1C(F)(F)F
(A) > 100 µM

(Q) Moving on to the next compound: O=C1CCCC2=C1CC1=C(CCCC1=O)N2c1ccc([N+](=O)[O-])cc1
(A) > 100 µM

(Q) Then what about the compound C=CC(=O)NCNC(=O)C=C ?
(A) > 100 µM

***
(Q) # get_value(readout='TGI', item= CC(=O)N=c1ccc2nc(N)nn(O)c-2c1 )
(A) > 100 µM

(Q) Likewise for O=C(Cc1ccc(Nc2ccnc(C(F)(F)F)c2)cc1)N/N=C/c1ccccc1O ?
(A) > 83.1 µM

(Q) Follow-up item: C=C1c2[nH]c3ccccc3c2CC(C(=O)O)N1C(O)c1ccc(S(=O)(=O)O)cc1 (stereo unspecified)
(A) > 100 µM

(Q) Then what about the compound Brc1ccc(Nc2nc3ccccc3nc2Nc2ccc(Br)cc2)cc1 ?
(A) 5.15 µM

(Q) Another compound to check: O=C(Oc1c(Br)cc(Br)cc1C(=O)Oc1ccccc1)C(=O)Oc1c(Br)cc(Br)cc1C(=O)Oc1ccccc1
(A) 89.9 µM

(Q) Next record, please: C#CCn1c(=O)c2cccnc2n(CC#C)c1=O
(A) > 100 µM

###

Listing of recorded TGI by entry.
System: SNB-78 CNS
run description: NCI tumour cell line growth inhibition, 48 h

Worked set:
(Q) Entry C=C1C(=O)c2cc3c(cc2C(c2cc(OC)c(OC)c(OC)c2)[C@@H]1C(=O)O)OCO3 (stereo not given in full) : reported TGI = ?
(A) > 100 µM

(Q) # iterate: CCCCCC#COC1CC(C)CC[C@@H]1C(C)C (stereo not given in full)
(A) > 100 µM

(Q) Can you check Cc1cc2c(cc1C)[n+](=O)c(C(=O)CC(=O)C(=O)Nc1ccccc1C(C)C)c(C)n2[O-] next?
(A) > 100 µM

(Q) Same read-out for C=C1c2[nH]c3ccccc3c2CC(C(=O)O)N1C(O)c1ccc(S(=O)(=O)O)cc1 (stereo not given) ?
(A) > 100 µM

***
(Q) Fill in the blank: the reported TGI of COc1ccc2[nH]c3c4c(cc(-c5ccccc5)c3c2c1)C(=O)N(c1ccccc1)C4=O is ____.
(A) > 88.3 µM
